Data provenance is patent US20250018049A1.

Target: CDK2 (Homo sapiens, UniProt P24941)
Experiment: Phospho-Rb HTRF measurement in OVCAR3 cells (inhibition of CDK2)
Format: cell-based
Design: High-Throughput Measurement of Cellular Endogenous CDK2; endogenous in cells; host or cells: OVCAR3
Settings: pRB(S807/811) assay, 24 h compound treatment
value-type: pIC50
Conceptually, pIC50 converts a concentration in mol/L into minus its log10.

Study these solved cases before continuing.
| molecule | pIC50 |
| --- | --- |
| Cn1c(=O)n(C2CCC(=O)NC2=O)c2cccc(C#CCOC3CCN(CC4CCN(S(=O)(=O)N5CCC(Nc6ncc7ccc(=O)n(C8CCCC8)c7n6)CC5)CC4)CC3)c21 (stereo not drawn) [Compound 13] | 5.67 |
| Cn1c(=O)n(C2CCC(=O)NC2=O)c2cccc(C#CCOC3CCN(S(=O)(=O)N4CCC(Nc5ncc6ccc(=O)n(C7CCCC7)c6n5)CC4)CC3)c21 (stereo not drawn) [Compound 14] | 6.20 |

Kindly review the next molecule as well.
Task: Fill in: pIC50 of O=C1CCC(N2C(=O)c3ccc(N4CC(Oc5cccc(S(=O)(=O)N6CCC(Nc7ncc8ccc(=O)n(C9CCCC9)c8n7)CC6)c5)C4)cc3C2=O)C(=O)N1 (stereo not drawn) [Compound 12] is ___
Output: 6.16

* * *

Molecular target: CDK2 (Homo sapiens, UniProt P24941)
Assay: NanoBRET CDK2 engagement assay
Type: cell-based
Parameters: expressed in transfected cells
Conditions: OVCAR3 cells with stable CDK2-Luciferase vector, 24 hours treatment
Catalogue of compounds with associated IC50
Report the figure in nM without appending any unit label.

As a guide, the following entries are already answered.
| compound | unit-string | IC50 |
| --- | --- | --- |
| O=C1CCC(N2Cc3cc(N4CC5CC4CN5Cc4cccc(S(=O)(=O)N5CCC(Nc6ncc7ccc(=O)n(C8CCCC8)c7n6)CC5)c4)ccc3C2=O)C(=O)N1 (centres unmarked) | nM | 152 |
| O=C1CCC(N2Cc3c(OCCN4CCC(Oc5cccc(S(=O)(=O)N6CCC(Nc7ncc8ccc(=O)n(C9CCCC9)c8n7)CC6)c5)CC4)cccc3C2=O)C(=O)N1 (centres unmarked) | nM | 426 |
| O=C1CCC(N2C(=O)c3cc(F)c(N4CCN(Cc5cccc(S(=O)(=O)N6CC[C@H](Nc7ncc8ccc(=O)n(C9CCCC9)c8n7)[C@@H](F)C6)c5)CC4)cc3C2=O)C(=O)N1 (some centres unmarked) | nM | 1750 |

Task: Which IC50 value is on record for O=C1CCC(N2Cc3cc(N4CC(N5CCN(c6cccc(S(=O)(=O)N7CCC(Nc8ncc9ccc(=O)n(C%10CCCC%10)c9n8)CC7)c6)CC5)C4)ccc3C2=O)C(=O)N1 (centres unmarked) ?
Output: 149

Task: Value lookup for IC50; key = Cn1c(=O)n(C2CCC(=O)NC2=O)c2cccc(CCCOCCNS(=O)(=O)N3CCC(Nc4ncc5ccc(=O)n(C6CCCC6)c5n4)CC3)c21 (centres unmarked)
Output: 188

* * *

Biological target: CDK2 (Homo sapiens, UniProt P24941)
Experiment: NanoBRET CDK2 engagement assay
Format: cell-based
Parameters: expressed in transfected cells
Conditions: OVCAR3 cells with stable CDK2-Luciferase vector, 24 hours treatment
value-type: pIC50
pIC50 (log units): -log10 of the concentration in mol/L.

| molecule | pIC50 |
| --- | --- |
| O=C1CCC(N2Cc3cc(N4CCC5(CCN(Cc6cccc(S(=O)(=O)N7CCC(Nc8ncc9ccc(=O)n(C%10CCCC%10)c9n8)CC7)c6)CC5)CC4)ccc3C2=O)C(=O)N1 (stereo not shown) [Compound 59] | 6.74 |

Task: What is its pIC50 for CDK2 (Homo sapiens, UniProt P24941)? Entry: O=C1CCC(N2Cc3cc(N4CCN(C5CN(c6cccc(S(=O)(=O)N7CCC(Nc8ncc9ccc(=O)n(C%10CCCC%10)c9n8)CC7)c6)C5)CC4)ccc3C2=O)C(=O)N1 (stereo not shown) [Compound 70]
Output: 7.40

Task: What measured pIC50 is associated with O=C1CCC(N2Cc3cc(N4CC(N5CCC(Oc6cccc(S(=O)(=O)N7CCC(Nc8ncc9ccc(=O)n(C%10CCCC%10)c9n8)CC7)c6)CC5)C4)ccc3C2=O)C(=O)N1 (stereo not shown) [Compound 28] on CDK2 (Homo sapiens, UniProt P24941)?
Output: 6.75

Task: Param readout= pIC50; system= CDK2 (Homo sapiens, UniProt P24941); entry= Cn1c(=O)n(C2CCC(=O)NC2=O)c2cccc(C3CN(Cc4cccc(S(=O)(=O)N5CCC(Nc6ncc7ccc(=O)n(C8CCCC8)c7n6)CC5)c4)C3)c21 (stereo not shown) [Compound 40] ; returns value.
Output: 6.53

Task: Form: Entry = O=C1CCC(N2Cc3cc(N4CC5CCC(C4)N5Cc4cccc(S(=O)(=O)N5CCC(Nc6ncc7ccc(=O)n(C8CCCC8)c7n6)CC5)c4)ccc3C2=O)C(=O)N1 (stereo not shown) [Compound 54] | System = CDK2 (Homo sapiens, UniProt P24941) | pIC50 = ____
Output: 6.67

Task: Any idea what pIC50 came out for O=C1CCC(N2Cc3cc(CNCCOc4cccc(S(=O)(=O)N5CCC(Nc6ncc7ccc(=O)n(C8CCCC8)c7n6)CC5)c4)ccc3C2=O)C(=O)N1 (stereo not shown) [Compound 68] on CDK2 (Homo sapiens, UniProt P24941)?
Output: 6.70

Task: Item: CN(C[C@H]1CN(CCCc2cccc3c2n(C)c(=O)n3C2CCC(=O)NC2=O)CCO1)S(=O)(=O)N1CCC(Nc2ncc3ccc(=O)n(C4CCCC4)c3n2)CC1 (stereo partly shown) [Compound 24] Test system: CDK2 (Homo sapiens, UniProt P24941) Read-out: pIC50 Value: ?
Output: 6.77

* * *

Listing of recorded IC50 by entry.
Molecular target: CDK2 (Homo sapiens)
Assay: NanoBRET CDK2 engagement assay
Type: cell-based
Parameters: expressed in transfected cells
Conditions: OVCAR3 cells with stable CDK2-Luciferase vector, 24 hours treatment
Only the number, expressed in nM, is required.

Worked examples follow.
| molecule | IC50 [nM] |
| --- | --- |
| CN(CCCOCCCc1cccc2c1n(C)c(=O)n2C1CCC(=O)NC1=O)S(=O)(=O)N1CCC(Nc2ncc3ccc(=O)n(C4CCCC4)c3n2)CC1 (stereo not shown) | 253 |
| CN(CCCOCCCc1cccc2c1C(=O)N(C1CCC(=O)NC1=O)C2=O)S(=O)(=O)N1CCC(Nc2ncc3ccc(=O)n(C4CCCC4)c3n2)CC1 (stereo not shown) | 791 |
| O=C(COc1cccc2c1C(=O)N(C1CCC(=O)NC1=O)C2=O)NCCOCCN1CCN(S(=O)(=O)N2CCC(Nc3ncc4ccc(=O)n(C5CCCC5)c4n3)CC2)CC1 (stereo not shown) | 3040 |

Task: What does the data say about its IC50? Entry: O=C1CCC(N2Cc3cc(CN4CCC(Oc5cccc(S(=O)(=O)N6CCC(Nc7ncc8ccc(=O)n(C9CCCC9)c8n7)CC6)c5)CC4)ccc3C2=O)C(=O)N1 (stereo not shown)
Output: 46

Task: For the molecule shown here, O=C1CCC(N2Cc3cc(N4CC5CCC4CN5Cc4cccc(S(=O)(=O)N5CCC(Nc6ncc7ccc(=O)n(C8CCCC8)c7n6)CC5)c4)ccc3C2=O)C(=O)N1 (stereo not shown) , give the reported IC50.
Output: 198

Task: // IC50 lookup, key: O=C1CCC(N2Cc3cc(N4CCC(CN5CCC(c6cccc(S(=O)(=O)N7CCC(Nc8ncc9ccc(=O)n(C%10CCCC%10)c9n8)CC7)c6)CC5)CC4)ccc3C2=O)C(=O)N1 (stereo not shown)
Output: 86

Task: Consider the molecule shown here: O=C1CCC(N2Cc3cc(C4CN(Cc5cccc(S(=O)(=O)N6CCC(Nc7ncc8ccc(=O)n(C9CCCC9)c8n7)CC6)c5)C4)ccc3C2=O)C(=O)N1 (stereo not shown) What is its recorded IC50?
Output: 190

Task: Reported IC50, molecule O=C1CCC(N2Cc3cc(N4CCC5(CC4)CN(Cc4cccc(S(=O)(=O)N6CCC(Nc7ncc8ccc(=O)n(C9CCCC9)c8n7)CC6)c4)C5)ccc3C2=O)C(=O)N1 (stereo not shown) : ____
Output: 169

Task: Reported IC50 for N#Cc1cc2cnc(NC3CCN(S(=O)(=O)c4cccc(CN5CCN(c6cc7c(cc6F)C(=O)N(C6CCC(=O)NC6=O)C7=O)CC5)c4)CC3)nc2n(C2CCCC2)c1=O (stereo not shown) : what is it?
Output: 2160

Task: Look up IC50 for this molecule: O=C1CCC(N2Cc3cc(N4CC5(CN(Cc6cccc(S(=O)(=O)N7CCC(Nc8ncc9ccc(=O)n(C%10CC%11CC%11C%10)c9n8)CC7)c6)C5)C4)ccc3C2=O)C(=O)N1 (stereo not shown)
Output: 327

Task: Item CC1(O)CCCC1n1c(=O)ccc2cnc(NC3CCN(S(=O)(=O)c4cccc(CN5CCN(c6ccc7c(c6)CN(C6CCC(=O)NC6=O)C7=O)CC5)c4)CC3)nc21 (stereo not shown) has what recorded IC50?
Output: 736

Task: Dear colleague, I am looking for the recorded IC50 of the following molecule: Cn1nc(N2CCC(=O)NC2=O)c2ccc(C3CCN(Cc4cccc(S(=O)(=O)N5CCC(Nc6ncc7ccc(=O)n(C8CCCC8)c7n6)CC5)c4)CC3)cc21
Output: 167

Task: Fill in: IC50 of Cn1c(=O)n(C2CCC(=O)NC2=O)c2cccc(C#CCOC3CCN(S(=O)(=O)N4CCC(Nc5ncc6ccc(=O)n(C7CCCC7)c6n5)CC4)CC3)c21 (stereo not shown) is ___
Output: 668

Task: Which IC50 value is on record for CN(C1CCC(Nc2cccc3c2C(=O)N(C2CCC(=O)NC2=O)C3=O)CC1)S(=O)(=O)N1CCC(Nc2ncc3ccc(=O)n(C4CCCC4)c3n2)CC1 (stereo not shown) ?
Output: 356

Task: I would be grateful if you could share the reported IC50 for O=C1CCC(N2C(=O)c3cccc(NCCOCCOCCOCCOCCNS(=O)(=O)N4CCC(Nc5ncc6ccc(=O)n(C7CCCC7)c6n5)CC4)c3C2=O)C(=O)N1 (stereo not shown) .
Output: 403

Task: Which IC50 value belongs to O=C1CCC(N2C(=O)c3ccc(N4CC(Oc5ccc(S(=O)(=O)N6CCC(Nc7ncc8ccc(=O)n(C9CCCC9)c8n7)CC6)cc5)C4)cc3C2=O)C(=O)N1 (stereo not shown) ?
Output: 99.9
